- assayMethodText: Solubility measurement (HPLC)
- Assay type: physicochemical
- conditionInfo: aqueous buffer, thermodynamic from solid; pH 7.0 buffer solution (20 mM), 25° C.; read-out: Solubility at pH 7.0

# molecule, readoutUnit, solubility at 30 min
rows = [
    ("CC(C)(O)CNc1nc(Nc2ccnc(C(F)(F)F)c2)nc(-c2cccc(C(F)(F)F)n2)n1 [Compound 19, reference compound]", "µg/mL", 0.109),
    ("CN1CCN(c2nc(Nc3ccnc(C(F)(F)F)c3)nc(-c3cccc(C(F)(F)F)n3)n2)CC1 [Compound 17]", "µg/mL", 0.276),
]
